Assay: self-splicing fitness, log relative to wild type (ln ratio); higher = more splicing; Tetrahymena group I intron in knt gene, E. coli kanamycin selection, DiMSum; sequences stand for … in CUCUCU…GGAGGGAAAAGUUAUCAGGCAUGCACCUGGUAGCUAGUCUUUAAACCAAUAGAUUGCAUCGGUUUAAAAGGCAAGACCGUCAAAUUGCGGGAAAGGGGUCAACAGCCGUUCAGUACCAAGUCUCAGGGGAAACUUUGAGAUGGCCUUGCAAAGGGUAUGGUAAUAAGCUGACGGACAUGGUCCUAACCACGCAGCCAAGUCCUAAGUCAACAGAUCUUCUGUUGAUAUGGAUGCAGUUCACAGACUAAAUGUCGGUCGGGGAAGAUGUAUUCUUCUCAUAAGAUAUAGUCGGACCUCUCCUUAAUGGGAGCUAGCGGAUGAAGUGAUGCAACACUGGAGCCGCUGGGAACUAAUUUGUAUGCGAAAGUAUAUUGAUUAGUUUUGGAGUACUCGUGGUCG;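 note: selection with 25 µg/mL kanamycin versus none on LB agar overnight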
Settings: 30 °C
Values of self-splicing fitness (ln) greater than or equal to -2 map to 1.0; values below map to 0.0.

INSERT INTO assay_data (polymersequence, classification) VALUES
  ('GGUCAGCAAUAUUACGGGUA', 1.0),
  ('GGCAAGCAAUAUUACGGUAU', 1.0),
  ('CAUUAGCAAUAUUACGGCCA', 0.0),
  ('UAACAGCAAUAUUACGCUCC', 0.0),
  ('UGGCAGCAAUAUUACGCCUG', 1.0),
  ('AAUGAGCAAUAUUACGCCGG', 0.0),
  ('UGAUAGCAAUAUUACGAGAU', 0.0),
  ('AGUGAGCAAUAUUACGAUAC', 0.0);

---

Test: self-splicing fitness, log relative to wild type (ln ratio); higher = more splicing; Tetrahymena group I intron in knt gene, E. coli kanamycin selection, DiMSum; sequences stand for … in CUCUCU…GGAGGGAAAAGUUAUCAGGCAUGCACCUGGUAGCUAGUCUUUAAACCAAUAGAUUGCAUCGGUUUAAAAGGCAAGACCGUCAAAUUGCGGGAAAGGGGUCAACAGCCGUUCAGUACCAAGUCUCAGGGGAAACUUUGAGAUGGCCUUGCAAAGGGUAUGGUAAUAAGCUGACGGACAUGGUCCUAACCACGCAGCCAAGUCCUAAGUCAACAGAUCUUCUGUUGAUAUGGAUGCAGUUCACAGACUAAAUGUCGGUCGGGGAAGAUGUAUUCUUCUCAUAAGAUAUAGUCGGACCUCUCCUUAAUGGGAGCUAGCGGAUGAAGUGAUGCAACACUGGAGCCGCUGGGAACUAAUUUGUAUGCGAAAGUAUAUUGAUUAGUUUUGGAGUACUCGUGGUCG
Details: 37 °C
Known self-splicing fitness (ln) of a selection of sequences
testReadout: self-splicing fitness (ln)

INSERT INTO measurements (polymersequence, val) VALUES
  ('AUGUAGCAAUAUUACGCAAA', -1.07),
  ('CGCUAGCAAUAUUACGACAC', -1.33),
  ('AUUUAGCAAUAUUACGUCCU', 0.18),
  ('AAUUAGCAAUAUUACGAGUA', -1.16),
  ('CUCAAGCAAUAUUACGCCUA', -2.16),
  ('GAAAAGCAAUAUUACGGGAA', -0.425),
  ('AGAUAGCAAUAUUACGGGAG', -1.95),
  ('AUGUAGCAAUAUUACGGUCG', -1.59),
  ('ACUCAGCAAUAUUACGACCC', -2.22),
  ('CCCAAGCAAUAUUACGCACG', -2.84),
  ('GGCUAGCAAUAUUACGAAUG', -1.01),
  ('UGAUAGCAAUAUUACGGUUU', -1.38),
  ('CCGAAGCAAUAUUACGGUCU', -3.23),
  ('CGAUAGCAAUAUUACGGGGG', -1.49),
  ('CGGAAGCAAUAUUACGGAUG', -0.785),
  ('GGUUAGCAAUAUUACGUGGC', -1.64);

---

Known self-splicing fitness (ln) of a selection of sequences
Test: self-splicing fitness, log relative to wild type (ln ratio); higher = more splicing; Tetrahymena group I intron in knt gene, E. coli kanamycin selection, DiMSum; sequences stand for … in CUCUCU…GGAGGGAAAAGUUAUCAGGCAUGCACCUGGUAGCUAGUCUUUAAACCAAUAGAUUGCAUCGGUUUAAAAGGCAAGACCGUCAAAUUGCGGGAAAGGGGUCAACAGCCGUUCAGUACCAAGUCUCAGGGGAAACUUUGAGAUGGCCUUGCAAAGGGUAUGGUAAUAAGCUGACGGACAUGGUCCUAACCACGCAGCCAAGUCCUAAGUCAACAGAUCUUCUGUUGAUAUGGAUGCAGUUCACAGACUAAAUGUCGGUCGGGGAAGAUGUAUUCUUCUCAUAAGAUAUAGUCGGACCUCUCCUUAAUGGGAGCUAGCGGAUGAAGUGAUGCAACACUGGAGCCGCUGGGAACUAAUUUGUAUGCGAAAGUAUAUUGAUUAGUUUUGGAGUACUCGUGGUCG
Conditions: 30 °C
testReadout: self-splicing fitness (ln)

INSERT INTO assay_data (polymersequence, val) VALUES
  ('AGCCAGCAAUAUUACGUAUC', -2.85),
  ('ACCGAGCAAUAUUACGACCU', -1.75),
  ('UGAUAGCAAUAUUACGCCAU', -2.82),
  ('CGAGAGCAAUAUUACGCGCA', -3.56),
  ('GUCAAGCAAUAUUACGAGUG', -3.56),
  ('ACGUAGCAAUAUUACGCCCC', -1.38),
  ('CAACAGCAAUAUUACGGUAU', -3.52),
  ('AACUAGCAAUAUUACGACGC', -0.567),
  ('UGGCAGCAAUAUUACGCGGU', -2.54),
  ('GAAUAGCAAUAUUACGGGCC', -1.6),
  ('CGAAAGCAAUAUUACGAUAU', -3.42),
  ('AAUGAGCAAUAUUACGCUCU', -3.18),
  ('GAAUAGCAAUAUUACGUUAU', -2.79),
  ('CUGAAGCAAUAUUACGCCCA', -2.13),
  ('GAGCAGCAAUAUUACGGAAG', -3.65),
  ('GUGAAGCAAUAUUACGGGAU', -1.1),
  ('AAAGAGCAAUAUUACGUGUU', -4.56),
  ('AUCAAGCAAUAUUACGUUCA', -1.91),
  ('UCACAGCAAUAUUACGCUGU', -2.88),
  ('GGUCAGCAAUAUUACGGUAC', 0.214),
  ('AUAGAGCAAUAUUACGUCAG', -3.64),
  ('ACGAAGCAAUAUUACGAUAU', -3.39),
  ('CACCAGCAAUAUUACGACGG', -0.253),
  ('GUGAAGCAAUAUUACGCUAC', -3.39),
  ('AAUUAGCAAUAUUACGUGUG', -2.11),
  ('UAGGAGCAAUAUUACGGCGA', -1.51),
  ('AACUAGCAAUAUUACGUAUU', -2.04),
  ('ACUUAGCAAUAUUACGGAGC', -3.46),
  ('UAUAAGCAAUAUUACGCCGU', -1.41),
  ('AACCAGCAAUAUUACGUUGG', -3.14),
  ('UGCAAGCAAUAUUACGCUGG', -4),
  ('ACCCAGCAAUAUUACGGGGC', -4.5),
  ('UGUUAGCAAUAUUACGUUCA', 0.071),
  ('CCGUAGCAAUAUUACGGAAA', -3.22);

---

Assay: self-splicing fitness, log relative to wild type (ln ratio); higher = more splicing; Tetrahymena group I intron in knt gene, E. coli kanamycin selection, DiMSum; sequences stand for … in CUCUCU…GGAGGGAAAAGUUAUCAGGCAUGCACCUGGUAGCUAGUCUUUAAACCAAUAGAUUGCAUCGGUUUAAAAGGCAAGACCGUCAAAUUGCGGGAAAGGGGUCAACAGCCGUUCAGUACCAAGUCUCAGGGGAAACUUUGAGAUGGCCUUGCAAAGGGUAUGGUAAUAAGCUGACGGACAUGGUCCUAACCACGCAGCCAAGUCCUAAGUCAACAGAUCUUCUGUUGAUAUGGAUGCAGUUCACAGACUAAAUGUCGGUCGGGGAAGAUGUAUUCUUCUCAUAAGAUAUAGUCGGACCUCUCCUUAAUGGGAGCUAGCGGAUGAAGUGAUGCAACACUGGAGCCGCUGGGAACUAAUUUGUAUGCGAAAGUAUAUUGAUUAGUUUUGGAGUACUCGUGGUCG
Settings: 37 °C
Values of self-splicing fitness (ln) greater than or equal to -1 map to T; values below map to F.

INSERT INTO assay_data (polymersequence, classification) VALUES
  ('ACGUAGCAAUAUUACGCCUU', 'T'),
  ('ACAUAGCAAUAUUACGCGGA', 'T'),
  ('CUACAGCAAUAUUACGUCCU', 'F'),
  ('ACGCAGCAAUAUUACGCGUC', 'F'),
  ('GCCGAGCAAUAUUACGAGUU', 'T'),
  ('AUCCAGCAAUAUUACGGGUC', 'F'),
  ('CGCAAGCAAUAUUACGGUUG', 'F'),
  ('GCAGAGCAAUAUUACGUAAC', 'T'),
  ('CCUGAGCAAUAUUACGCCAC', 'F'),
  ('UACAAGCAAUAUUACGAAAA', 'F'),
  ('CUCAAGCAAUAUUACGGGGG', 'F'),
  ('CGGUAGCAAUAUUACGGUUC', 'F'),
  ('UCUCAGCAAUAUUACGAUCG', 'T'),
  ('AGGUAGCAAUAUUACGACGA', 'T'),
  ('UCGAAGCAAUAUUACGCUGC', 'F'),
  ('CAAGAGCAAUAUUACGCUAG', 'F'),
  ('UUGCAGCAAUAUUACGCGCG', 'F'),
  ('GACUAGCAAUAUUACGAGCA', 'T'),
  ('CCCCAGCAAUAUUACGACAG', 'F'),
  ('ACCGAGCAAUAUUACGCUAG', 'F'),
  ('UUUAAGCAAUAUUACGAGCG', 'T'),
  ('GCUGAGCAAUAUUACGAUCA', 'F'),
  ('ACCAAGCAAUAUUACGGCGA', 'T'),
  ('AUCUAGCAAUAUUACGUAAU', 'F'),
  ('GCUCAGCAAUAUUACGGUAG', 'F'),
  ('GUAAAGCAAUAUUACGUACC', 'F'),
  ('AUGAAGCAAUAUUACGAAAG', 'T'),
  ('CCAGAGCAAUAUUACGAACA', 'F'),
  ('UUAGAGCAAUAUUACGUAAU', 'F'),
  ('AACUAGCAAUAUUACGACGU', 'T'),
  ('AGAUAGCAAUAUUACGAUCA', 'T'),
  ('CGGUAGCAAUAUUACGAUCU', 'T'),
  ('UGAGAGCAAUAUUACGGUCA', 'T');

The reported numbers originate from the supplement of paper PMC7877785.
